Target: Protein cereblon/DNA damage-binding protein 1 (Homo sapiens)
pIC50: −log10 of the molar value.
Think of 6 as a floor: if pIC50 stands on it or above, it is Criterion met; beneath it, Criterion not met.

- compound: "CC(C)(C)OC(=O)N1CCC(CNc2ccc3c(cnn3C3CCC(=O)NC3=O)c2)CC1 (stereo not given)"
  category: "Criterion met"
- compound: "CC(C)(C)OC(=O)N1CCC(CNc2ccc(C3CCC(=O)NC3=O)cc2)CC1 (stereo not given)"
  category: "Criterion not met"
- compound: "Cn1nc(C2CCC(=O)NC2=O)c2ccc(NC3CCNCC3)cc21 (stereo not given)"
  category: "Criterion met"
